- Species on record: Rattus norvegicus
- protocol-description: Open TG-GATES - Regimen: Single
- Assay type: toxicity, organism-based, Sprague-Dawley
- Parameters: regimen Single, gender Male, age 6 weeks
- test-conditions: in vivo, po, 30 mg/kg, 9 h, tissue Blood, route gavage, dose level Middle
observable: Mono (%)
API: value field is a number in %; no unit string.

Using the record for CC1=C(/C=C/C(C)=C/C=C/C(C)=C/CO)C(C)(C)CCC1 [RETINOL] , report its Mono.
2.8

Using the record for CN(C)CCCN1c2ccccc2CCc2ccccc21 [IMIPRAMINE] , report its Mono.
1.8

Using the record for CN(C)CCCN1c2ccccc2CCc2ccc(Cl)cc21 [CLOMIPRAMINE] , report its Mono.
2.2

Using the record for `CN(C)CCN(Cc1cccs1)c1ccccn1` , report its Mono.
2.2

Data provenance: ChEMBL document CHEMBL3885861
